Reference for the values: ChEMBL document CHEMBL1201862

- Tested on: RXF 631
- TEST_DETAILS: NCI tumour cell line growth inhibition, 48 h
Calls of active or inactive are those of the source. Rule as the data show it: active = GI50 up to about 1.1 µM and inactive = higher.
PROPERTY_LABEL: GI50

Example results:
COMPOUND | OBSERVED
CC(C(=O)O)/C(=C\c1ccc2c(c1)OCO2)C(=O)O (stereo not drawn) | > 100 µM (inactive)
CCOC(=O)C1=C(C)C2C3C(=O)OC(=O)C3C1(C)C1C(=O)OC(=O)C21 (stereo not drawn) | > 100 µM (inactive)
Cc1ccc(S(=O)(=O)OC2CSSCC2OS(=O)(=O)c2ccc(C)cc2)cc1 (stereo not drawn) | 13.6 µM (inactive)
O=S1(=O)OCCOS(=O)(=O)C1Br | > 100 µM (inactive)
COc1ccc2nc(-c3ccc(O)cc3)cc(O)c2c1 | 3.63 µM (inactive)

Input: Report GI50 for "Cc1ccc(NC(=O)CCc2nnc(S)[nH]2)cc1" please.
Output: > 100 µM (inactive)

Input: Name the recorded GI50 for "Cc1cc2c(cc1C)[n+]([O-])c(C(=O)/C=C/c1ccccc1Cl)c(C)[n+]2[O-]" .
Output: 24.7 µM (inactive)

Input: Which GI50 is listed for "O=[N+]([O-])c1ccccc1S(=O)(=O)c1ccccc1" ?
Output: 18.5 µM (inactive)
